Please respond with reported pEC50 for every item in the list.
- target_or_system: GLP-1R (Homo sapiens)
- Sequence (P43220 24-463): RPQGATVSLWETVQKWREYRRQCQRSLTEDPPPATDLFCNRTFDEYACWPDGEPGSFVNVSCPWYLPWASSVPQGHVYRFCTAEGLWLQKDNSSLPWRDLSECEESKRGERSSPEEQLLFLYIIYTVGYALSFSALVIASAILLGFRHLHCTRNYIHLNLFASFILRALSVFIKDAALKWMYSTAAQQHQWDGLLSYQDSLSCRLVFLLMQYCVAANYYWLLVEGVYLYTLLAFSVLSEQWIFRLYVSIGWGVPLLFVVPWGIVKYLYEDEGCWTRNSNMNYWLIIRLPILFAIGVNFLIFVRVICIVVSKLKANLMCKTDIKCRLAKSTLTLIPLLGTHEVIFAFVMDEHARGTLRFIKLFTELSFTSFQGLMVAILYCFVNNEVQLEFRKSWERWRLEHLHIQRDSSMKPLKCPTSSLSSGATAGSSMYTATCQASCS
- protocol_notes: GLP-1R activation: cAMP increase in CHO cells stably expressing GLP-1R
- Type: cell-based
- run_parameters: cAMP increase, CHO cells stably expressing GLP-1R, 10 point dose response, 30 minutes incubation; read-out: EC50
Numbers only, as −log10 of the molar value.

compound_string: COc1cc(C#N)ccc1COc1cccc(-c2cc(F)c(Cc3nc4ccc(C(=O)O)cc4n3CC3(CF)CC3)cc2F)n1
pEC50: 9.43

I need pEC50 for every entry listed below, if you could help.
1. N#CCC1(Cn2c(Cc3cc(F)c(-c4ccnc(OCc5ccc(C#N)cc5F)n4)cc3F)nc3ccc(C(=O)O)cc32)CC1
2. CO[C@H]1C[C@H](n2c(Cc3cc(F)c(-c4cccc(OCc5ccc(C#N)cc5F)n4)cc3F)nc3ccc(C(=O)O)cc32)C1
3. COCCn1c(Cc2cc(F)c(-c3cccc(OCc4ccc(C#N)cc4F)n3)cc2F)nc2ccc(C(=O)O)c(F)c21
4. COCCn1c(Cc2ccc(-c3cccc(Oc4cccc5ccccc45)n3)cc2F)nc2ccc(C(=O)O)cc21

result:
[9.68, 5.95, 8.67, 6.04]

Dear colleague, could you please provide pEC50 for the compounds listed below?
1. N#Cc1ccc(COc2nccc(-c3ccc(Cc4nc5ccc(C(=O)O)cc5n4Cc4ncco4)cc3F)n2)c(F)c1
2. CCn1cncc1Cn1c(Cc2ccc(-c3ccc(F)c(OCc4ccc(Cl)cc4F)c3)cc2F)nc2ccc(C(=O)O)cc21

result:
1. 8.57
2. 8.73

----------
I'd appreciate it if you could supply Predicted Hepatic Clearance (Pred. Cl.) values for the items below.
- protocol_notes: Microsomal stability, human liver microsomes (predicted hepatic clearance)
- run_parameters: predicted from in vitro microsomal stability data
Numbers only, in L/h/kg.

Worked examples follow.
compound: CC1(C)CC[C@@H](Cn2c(Cc3cc(F)c(-c4cccc(OCc5ccc(C#N)cc5F)n4)cc3F)nc3ccc(C(=O)O)cc32)O1 (racemic)
Predicted Hepatic Clearance (Pred. Cl.) (L/h/kg): 0.72

compound: COCCn1c(Cc2cc(F)c(-c3cccc(OCc4ccc(C5=CCN(C(C)=O)CC5)cc4F)n3)cc2F)nc2ccc(C(=O)O)cc21
Predicted Hepatic Clearance (Pred. Cl.) (L/h/kg): 0.52

compound: N#Cc1ccc(COc2cccc(-c3ccc(Cc4nc5ccc(C(=O)O)cc5n4C4CCC4)c(F)c3)n2)c(F)c1
Predicted Hepatic Clearance (Pred. Cl.) (L/h/kg): 0.21

compound: N#Cc1ccc(COc2cccc(-c3ccc(Cc4nc5ccc(C(=O)O)cc5n4Cc4ccon4)c(F)c3)n2)c(F)c1
Predicted Hepatic Clearance (Pred. Cl.) (L/h/kg): 0.207

compound: COCCn1c(Cc2ccc(-c3cccc(OCc4cccc(OC(F)F)c4OC)n3)cc2F)nc2ccc(C(=O)O)cc21
Predicted Hepatic Clearance (Pred. Cl.) (L/h/kg): 0.56

compound: COCCn1c(Cc2ccc(-c3ncc(F)c(OCc4ccc(C#N)cc4F)n3)cc2F)nc2ccc(C(=O)O)cc21
Predicted Hepatic Clearance (Pred. Cl.) (L/h/kg): 0.28

Next up:
query: Tell me the measured Predicted Hepatic Clearance (Pred. Cl.) of C[C@H](O)Cn1c(Cc2cc(F)c(-c3cccc(OCc4ccc(C#N)cc4F)n3)cc2F)nc2ccc(C(=O)O)cc21 , please.
result: 0.21
